# Method notes: Vitality of HepG2 cells (Alamar Blue fluorescence)
# Type: cell-based
# Condition summary: human, HepG2 liver cells, HepG2, 40-48 hours, highest test concentration 10 μg/ml
Structures can show the parent of a compound that is named as a salt.
Reported endpoint: IC50

Compound	IC50
CN(C(=O)C[C@@H](N)CCCCNC(=N)N)C1CNC(NC(N)=O)=NC1=O (some centres unmarked) [Example 1, Dihydrochloride]	> 10 mg/L

Prompt: Report IC50 for CN(C(=O)CC(N)c1cccc(NC(=N)N)c1)C1CNC(NC(N)=O)=NC1=O (centres unmarked) [Example 2, Dihydrochloride] please.
Response: > 10 mg/L

----------
# System: apo B100 secretion of HepG2 cells
# Method notes: Functionality of HepG2 cells: secretion of apo B100 (ELISA)
# Type: cell-based
# Condition summary: human, HepG2 liver cells, HepG2, 40-48 hours, highest test concentration 10 μg/ml
Counter-ions that a name gives are not always drawn.
Reported IC50 by item:

Compound	Target or test system	IC50
CN(C(=O)C[C@@H](N)CCCCNC(=N)N)C1CNC(NC(N)=O)=NC1=O (some centres unmarked) [Example 1, Dihydrochloride]	apo B100 secretion of HepG2 cells	> 10 µg/mL

As a next step, examine the compound that follows.
Prompt: Item: CN(C(=O)CC(N)c1cccc(NC(=N)N)c1)C1CNC(NC(N)=O)=NC1=O (centres unmarked) [Example 2, Dihydrochloride] Test system: apo B100 secretion of HepG2 cells Read-out: IC50 Value: ?
Response: > 10 µg/mL

----------
# Method notes: Acute toxicity in mice (LD50)
# Condition summary: mouse, in vivo, ip, intraperitoneal administration, dose at which 50% of treated mice survive
Reported endpoint: LD50 (mg/kg)
Unit mg/kg implied. Number only.

Prompt: Report LD50 for CN(C(=O)C[C@@H](N)CNC(=N)N)C1CNC(NC(N)=O)=NC1=O (some centres unmarked) [TAN 1057 A,B, reference compound] please.
Response: 100
